This collection of values is drawn from patent US20110218188A1.

experiment: Measurement of logP values by HPLC on reversed phase columns (EEC directive 79/831 Annex V.A8); format: physicochemical; settings: pH 2.7
Hi, to clarify the labels: class 1 covers logP from 3 upward, class 0 covers anything below 3.

INSERT INTO measurements (given_smiles, cat) VALUES
  ('CN(C)C(=O)c1cc(-c2ncnc(Nc3ccc(Cl)c(C(F)F)c3)n2)ccn1', 'class 0'),
  ('CSc1cccc(Nc2ncnc(-c3ccnc(C(=O)NC4CC4)c3)n2)c1', 'class 1'),
  ('CN(CC1CC1)C(=O)c1cc(-c2ncnc(Nc3cccc(C(F)F)c3)n2)ccn1', 'class 0'),
  ('CCCN(C)C(=O)c1cc(-c2ncnc(Nc3cccc(C#N)c3)n2)ccn1', 'class 0');
